System: PROVIDENCIA STUARTII CMX 640
Answer each item with its documented MIC.

Query string: Quick one: give measured MIC for `CC[C@H]1OC(=O)[C@H](C)C(=O)[C@H](C)[C@@H](O[C@@H]2O[C@H](C)C[C@H](N(C)C)[C@H]2O)[C@](C)(OC)C[C@@H](C)C2=N[C@@H]3CN(C(=O)OCc4ccccc4)C[C@@H]3N3C(=O)O[C@@]1(C)[C@H]3[C@H]2C`
Result string: > 100 µg/mL

Query string: Quick one: give measured MIC for `CC[C@H]1OC(=O)[C@H](C)C(=O)[C@H](C)[C@@H](O[C@@H]2O[C@H](C)C[C@H](N(C)C)[C@H]2O)[C@](C)(OC)C[C@@H](C)C2=NC[C@H](Cc3ccc(NC(=O)OCc4ccccc4)cc3)N3C(=O)O[C@@]1(C)[C@H]3[C@H]2C`
Result string: > 100 µg/mL

Query string: Quick one: give measured MIC for CCC1OC(=O)C(C)C(=O)C(C)C(OC2OC(C)CC(N(C)C)C2O)C(C)(OC)CC(C)C2=NC(c3ccccc3)C(c3ccccc3)N3C(=O)OC1(C)C3C2C (centres unmarked)
Result string: > 100 µg/mL

Query string: Quick one: give measured MIC for CC[C@H]1OC(=O)[C@H](C)C(=O)[C@H](C)[C@@H](O[C@@H]2O[C@H](C)C[C@H](N(C)C)[C@H]2O)[C@](C)(OC)C[C@@H](C)C2=NCC(CN(C)Cc3ccccc3)N3C(=O)O[C@@]1(C)[C@H]3[C@H]2C (some centres unmarked)
Result string: > 100 µg/mL

Query string: Quick one: give measured MIC for `CC[C@H]1OC(=O)[C@H](C)C(=O)[C@H](C)[C@@H](O[C@@H]2O[C@H](C)C[C@H](N(C)C)[C@H]2O)[C@](C)(OC)C[C@@H](C)C2=N[C@H](COCc3ccccc3F)CN3C(=O)O[C@@]1(C)[C@H]3[C@H]2C`
Result string: > 100 µg/mL

Query string: Quick one: give measured MIC for CCC1OC(=O)C(C)C(=O)C(C)C(OC2OC(C)CC(N(C)C)C2O)C(C)(OC)CC(C)C2=NCC(C)(CN(C)Cc3ccccc3)N3C(=O)OC1(C)C3C2C (centres unmarked)
Result string: > 100 µg/mL

Query string: Quick one: give measured MIC for C#CCN1CC2N=C3[C@H](C)C[C@@](C)(OC)[C@H](O[C@@H]4O[C@H](C)C[C@H](N(C)C)[C@H]4O)[C@@H](C)C(=O)[C@@H](C)C(=O)O[C@H](CC)[C@@]4(C)OC(=O)N(C2C1)[C@@H]4[C@H]3C (some centres unmarked)
Result string: > 100 µg/mL

Query string: Quick one: give measured MIC for `CC[C@H]1OC(=O)[C@H](C)[C@@H](O[C@H]2C[C@@](C)(OC)[C@@H](O)[C@H](C)O2)[C@H](C)[C@@H](O[C@@H]2O[C@H](C)C[C@H](N(C)C)[C@H]2O)[C@@H](C)C[C@@H](C)C2=NCCN3C(=O)O[C@@]1(C)[C@H]3[C@H]2C`
Result string: > 100 µg/mL

Query string: Quick one: give measured MIC for CC[C@H]1OC(=O)[C@H](C)C(=O)[C@H](C)[C@@H](O[C@@H]2O[C@H](C)C[C@H](N(C)C)[C@H]2O)[C@](C)(OC)C[C@@H](C)C2=NC3CN(C)CC3N3C(=O)O[C@@]1(C)[C@H]3[C@H]2C (some centres unmarked)
Result string: > 100 µg/mL

Query string: Quick one: give measured MIC for CC[C@H]1OC(=O)[C@H](C)C(=O)[C@H](C)[C@@H](O[C@@H]2O[C@H](C)C[C@H](N(C)C)[C@H]2O)[C@](C)(OC)C[C@@H](C)C2=NC3COCC3N3C(=O)O[C@@]1(C)[C@H]3[C@H]2C (some centres unmarked)
Result string: > 100 µg/mL

Query string: Quick one: give measured MIC for `CC[C@H]1OC(=O)[C@H](C)C(=O)[C@H](C)[C@@H](O[C@@H]2O[C@H](C)C[C@H](N(C)C)[C@H]2O)[C@](C)(OC)C[C@@H](C)C2=NC[C@H](COCc3ccc(OC)cc3)N3C(=O)O[C@@]1(C)[C@H]3[C@H]2C`
Result string: > 100 µg/mL

Query string: Quick one: give measured MIC for CC[C@H]1OC(=O)[C@H](C)C(=O)[C@H](C)[C@@H](O[C@@H]2O[C@H](C)C[C@H](N(C)C)[C@H]2O)[C@](C)(OC)C[C@@H](C)C2=NC(COCc3ccccc3)C(COCc3ccccc3)N3C(=O)O[C@@]1(C)[C@H]3[C@H]2C (some centres unmarked)
Result string: 100 µg/mL

Query string: Quick one: give measured MIC for `CC[C@H]1OC(=O)[C@H](C)C(=O)[C@H](C)[C@@H](O[C@@H]2O[C@H](C)C[C@H](N(C)C)[C@H]2O)[C@](C)(OC)C[C@@H](C)C2=NC[C@@H](Cc3ccccc3)N3C(=O)O[C@@]1(C)[C@H]3[C@H]2C`
Result string: 100 µg/mL

Query string: Quick one: give measured MIC for CCC1OC(=O)C(C)C(=O)C(C)C(OC2OC(C)CC(N(C)C)C2O)C(C)(OC)CC(C)C2=NC(CN3CCCCC3)CN3C(=O)OC1(C)C3C2C (centres unmarked)
Result string: > 100 µg/mL

Query string: Quick one: give measured MIC for `CC[C@H]1OC(=O)[C@H](C)C(=O)[C@H](C)[C@@H](O[C@@H]2O[C@H](C)C[C@H](N(C)C)[C@H]2O)[C@](C)(OC)C[C@@H](C)C2=N[C@H](COCc3ccncc3)CN3C(=O)O[C@@]1(C)[C@H]3[C@H]2C`
Result string: > 100 µg/mL

Query string: Quick one: give measured MIC for `CC[C@H]1OC(=O)[C@H](C)C[C@H](C)[C@@H](O[C@@H]2O[C@H](C)C[C@H](N(C)C)[C@H]2O)[C@](C)(OC)C[C@@H](C)C2=NCCN3C(=O)O[C@@]1(C)[C@H]3[C@H]2C`
Result string: 100 µg/mL

Query string: Quick one: give measured MIC for CC[C@H]1OC(=O)[C@H](C)C(=O)[C@H](C)[C@@H](O[C@@H]2O[C@H](C)C[C@H](N(C)C)[C@H]2O)[C@](C)(OC)C[C@@H](C)C2=NC3CN(CCOc4ccccc4)CC3N3C(=O)O[C@@]1(C)[C@H]3[C@H]2C (some centres unmarked)
Result string: > 100 µg/mL

FYI, the data here is from patent US6274715A.
